Target: Homeobox protein Meis1 (Homo sapiens)
Assay: Inhibition of MEIS1 (unknown origin) expressed in HEK293T cells co-expressing MEIS-Luc-pGL2 assessed as luciferase activity at 10 uM incubated for 48 hrs by luciferase reporter assay related to protein content
Format: cell-based
Design: scale not given: the % may be the effect or the level left
Known Activity of a selection of molecules
The reply should be a number in %, with the unit left off.

Please review the following examples before continuing.
INSERT INTO assay_data (mol, result_number) VALUES
  ('O=C(COc1ccc(C(=O)Nc2ccc(F)cc2)cc1)NCc1ccccc1Cl', 51),
  ('COc1ccc(CNC(=O)COc2ccc(C(=O)Nc3cccc(C)c3C)cc2)cc1', 50.6),
  ('O=C(COc1ccc(C(=O)Nc2cccc(Cl)c2)cc1)NCc1ccccc1Cl', 88),
  ('Cc1cccc(NC(=O)c2ccc(OCC(=O)NCc3ccccc3Cl)cc2)c1C', 43),
  ('COc1ccc(CNC(=O)COc2ccc(C(=O)Nc3cccc(Cl)c3)cc2)cc1', 5);

Query molecule follows.
Hello, I am looking for reported Activity with Homeobox protein Meis1 (Homo sapiens) for COc1ccc(CNC(=O)COc2ccc(C(=O)Nc3cccc(C)c3C)cc2)cc1OC . Could you help?
49
